# assayed-system: Estrogen receptor (Bos taurus) (UniProt Q9XSB5+P49884)
# experiment: Relative binding affinity to calf uterine estrogen receptor
# Format: protein assay
measurement-name: relative binding affinity (RBA)

# annotated cases, reported relative binding affinity (RBA) shown
CC1=C(c2ccc(O)cc2)C(CCCCCCCN)c2ccc(O)cc21 (configuration not stated); 11
CC1=C(c2ccc(O)cc2)C(CCCCN2CCCC2)c2ccc(O)cc21 (configuration not stated); 3.6
CC1=C(c2ccc(O)cc2)C(CCCCCCN(C)C)c2ccc(O)cc21 (configuration not stated); 12

1. CC1=C(c2ccc(O)cc2)C(CCCCCCNCc2ccccc2)c2ccc(O)cc21 (configuration not stated)
2. CC1=C(c2ccc(O)cc2)C(CCCCCCN2CCCCC2)c2ccc(O)cc21 (configuration not stated)
3. CC1=C(c2ccc(O)cc2)C(CCCCCCN2CCOCC2)c2ccc(O)cc21 (configuration not stated)
4. Oc1ccc(C2=Cc3cc(O)ccc3C2CCCCCCN2CCCC2)cc1 (configuration not stated)
5. Oc1ccc(C2=Cc3cc(O)ccc3C2CCCCCCN2CCCCC2)cc1 (configuration not stated)
Please list these in order of increasing relative binding affinity (RBA). Thank you! In plain terms: list the labels in the order you were asked to.
5, 4, 3, 1, 2

a. CCN(CC)CCCCCCC1C(c2ccc(O)cc2)=C(C)c2cc(O)ccc21 (configuration not stated)
b. CC1=C(c2ccc(O)cc2)C(CCCCCCCCN2CCCC2)c2ccc(O)cc21 (configuration not stated)
So which one has the bigger relative binding affinity (RBA) here, a or b ? Mark your selection by writing its label.
a

Values compiled from ChEMBL document CHEMBL1125054.
